Let's go through some recorded log10 of IC50 values for UniProtKB P39900 together.
observed_property: log10 of IC50 (log10 of the value in nM)

>>> val("CC(C)[C@H](NS(=O)(=O)c1ccc2c(c1)oc1ccc(-c3ccc(C(C)(C)C)o3)cc12)C(=O)O")
0.75
>>> val("CC(C)(C)c1nc(-c2ccc3c(c2)oc2ccc(S(=O)(=O)N[C@H](Cc4ccccc4)C(=O)O)cc23)no1")
0.61
>>> val("CC(C)[C@H](NS(=O)(=O)c1ccc2c(c1)oc1ccc(-c3ncc(Cn4cccn4)s3)cc12)C(=O)O")
0.57
>>> val("CC(C)[C@@H](NS(=O)(=O)c1ccc2oc3cc(-c4noc(C5CCCCC5)n4)ccc3c2c1)C(=O)O")
0.86
>>> val("Cc1nc(CC(C)C)sc1-c1ccc2oc3cc(S(=O)(=O)N[C@H](C(=O)O)C(C)C)ccc3c2c1")
1.11
>>> val("CC(C)[C@H](NS(=O)(=O)c1ccc2c(c1)oc1ccc(-c3ncc(CO)s3)cc12)C(=O)O")
0.38
>>> val("COc1ccc2nc(-c3ccc4oc5cc(S(=O)(=O)N[C@H](C(=O)O)C(C)C)ccc5c4c3)sc2c1")
0.43
>>> val("Cc1nc(-c2ccc3c(c2)oc2ccc(S(=O)(=O)N[C@@H](C(=O)O)C(C)C)cc23)no1")
0.96
>>> val("CCN(CC)C(=N)c1ccc2oc3cc(S(=O)(=O)N[C@H](C(=O)O)C(C)C)ccc3c2c1")
2.60
>>> val("CC(C)[C@H](NS(=O)(=O)c1ccc2c(c1)oc1ccc(-c3c(C(F)(F)F)n[nH]c3-c3ccccc3)cc12)C(=O)O")
2.04
>>> val("CC(C)[C@H](NS(=O)(=O)c1ccc2c(c1)oc1ccc(C(=N)NO)cc12)C(=O)O")
0.26

---

biological target: purified human MMP-12 enzyme (Homo sapiens, UniProt P39900)
Sequence (P39900 106-470): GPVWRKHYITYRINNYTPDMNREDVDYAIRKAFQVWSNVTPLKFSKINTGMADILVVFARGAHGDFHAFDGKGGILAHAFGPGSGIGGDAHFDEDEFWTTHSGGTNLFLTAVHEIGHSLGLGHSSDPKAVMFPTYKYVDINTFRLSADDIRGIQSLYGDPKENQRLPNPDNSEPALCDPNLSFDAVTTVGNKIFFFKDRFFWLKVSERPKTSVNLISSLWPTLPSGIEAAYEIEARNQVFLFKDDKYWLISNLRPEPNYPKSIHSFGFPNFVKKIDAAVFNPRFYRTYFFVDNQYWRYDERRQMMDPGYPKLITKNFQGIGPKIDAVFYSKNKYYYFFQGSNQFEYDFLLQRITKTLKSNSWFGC
Lab note: cut-off is 0.02 µM. Strictly less in IC50 is class 1. Exactly 0.02 µM or more is class 0.

>>> label("CC(=O)c1ccc(-c2ccc3c(c2)oc2ccc(S(=O)(=O)N[C@@H](C(=O)O)C(C)C)cc23)s1 [Compound 105]")
"class 0"
>>> label("CC(C)[C@H](NS(=O)(=O)c1ccc2c(c1)oc1ccc(-c3nc4c(F)c(F)c(F)cc4s3)cc12)C(=O)O [Compound 222]")
"class 1"
>>> label("CC(C)(C)c1nc(-c2ccc3c(c2)oc2ccc(S(=O)(=O)N[C@H](C(=O)O)c4ccccc4)cc23)no1 [Compound 281]")
"class 0"
>>> label("Cc1nc(CC(C)C)sc1-c1ccc2c(c1)oc1ccc(S(=O)(=O)N[C@@H](C(=O)O)C(C)C)cc12 [Compound 245]")
"class 1"
>>> label("CC(C)[C@H](NS(=O)(=O)c1ccc2c(c1)oc1ccc(-c3nc(-c4ccc(F)cc4)cs3)cc12)C(=O)O [Compound 284]")
"class 1"
>>> label("CC(C)[C@H](NS(=O)(=O)c1ccc2c(c1)oc1cc(-c3nc(C(F)(F)F)c(Cl)s3)ccc12)C(=O)O [Compound 233]")
"class 1"
>>> label("CC(C)[C@H](NS(=O)(=O)c1ccc2c(c1)oc1ccc(-c3nc4ccccc4o3)cc12)C(=O)O [Compound 194]")
"class 1"
>>> label("Cc1cscc1-c1ccc2c(c1)oc1ccc(S(=O)(=O)N[C@@H](C(=O)O)C(C)C)cc12 [Compound 99]")
"class 1"
>>> label("Cc1nn(C)c(C)c1-c1ccc2oc3cc(S(=O)(=O)N[C@H](C(=O)O)C(C)C)ccc3c2c1 [Compound 160]")
"class 0"
>>> label("CC(C)[C@H](NS(=O)(=O)c1ccc2c(c1)oc1cc(-c3nc4ccccc4s3)ccc12)C(=O)O [Compound 226]")
"class 1"
>>> label("CC(C)[C@@H](NS(=O)(=O)c1ccc2oc3cc(-c4nc(C(F)(F)F)c(Cl)s4)ccc3c2c1)C(=O)O [Compound 295]")
"class 1"
>>> label("CC(C)[C@@H](NS(=O)(=O)c1ccc2oc3cc(-c4nc5ccccc5o4)ccc3c2c1)C(=O)O [Compound 294]")
"class 1"
>>> label("CC(C)[C@H](NS(=O)(=O)c1ccc2oc3cc(-c4noc(C(C)(C)C)n4)ccc3c2c1)C(=O)O [Compound 276]")
"class 0"
>>> label("CC(C)[C@H](NS(=O)(=O)c1ccc2c(c1)sc1ccc(-c3ccncc3)cc12)C(=O)O [Compound 56]")
"class 1"
>>> label("CC(C)[C@H](NS(=O)(=O)c1ccc2c(c1)oc1ccc(-c3ccc4ncccc4c3)cc12)C(=O)O [Compound 14]")
"class 1"
>>> label("CC(C)[C@H](NS(=O)(=O)c1ccc2c(c1)oc1ccc(-c3cn[nH]c3)cc12)C(=O)O [Compound 23]")
"class 1"
>>> label("Cc1ccc2nc(-c3ccc4c(c3)oc3ccc(S(=O)(=O)N[C@@H](C(=O)O)C(C)C)cc34)sc2c1 [Compound 298]")
"class 1"
>>> label("CC(C)[C@H](NS(=O)(=O)c1ccc2oc3cc(-c4ccc(C(C)(C)C)o4)ccc3c2c1)C(=O)O [Compound 241]")
"class 0"
>>> label("Cc1nc(CC(C)C)sc1-c1ccc2c(c1)oc1ccc(S(=O)(=O)N[C@H](C(=O)O)C(C)C)cc12 [Compound 247]")
"class 0"
>>> label("CCc1sc(-c2ccc3c(c2)oc2cc(S(=O)(=O)N[C@H](C(=O)O)C(C)C)ccc23)cc1Br [Compound 165]")
"class 1"
>>> label("CC(C)[C@@H](NS(=O)(=O)c1ccc2oc3cc(-c4ccc(Cl)nc4)ccc3c2c1)C(=O)O [Compound 101]")
"class 1"
>>> label("CC(C)[C@H](NS(=O)(=O)c1ccc2c(c1)oc1ccc(-c3nc4cc(F)ccc4s3)cc12)C(=O)O [Compound 219]")
"class 1"
>>> label("CC(C)[C@H](NS(=O)(=O)c1ccc2c(c1)oc1ccc(C3=NCCS3)cc12)C(=O)O [Compound 107]")
"class 0"
